Molecular target: ADCK4 (human)
Experiment: KINOMEscan competition binding
Settings: compound 10.0 µM
Value Type: kinase still bound, per cent of control (%)
Give bare numbers, in %.

                                   compound      tested_on  observed_measurement
0  CN(C)C/C=C/C(=O)Nc1cccc(Nc2ncc3c(n2)N(C)c2ccccc2C(=O)N3C)c1  ADCK4 (human)                   100
1    N#Cc1c(NC(=O)c2cccc3ccccc23)sc2c1CCCC2  ADCK4 (human)                   100

Hey, can you go through the list below and give me kinase still bound, per cent of control for every item?
1. O=C(NOC[C@H](O)CO)c1ccc(F)c(F)c1Nc1ccc(I)cc1F
2. O=C(O)c1ccc(Nc2ncc3c(n2)-c2ccc(Cl)cc2C(c2c(F)cccc2F)=NC3)cc1
3. CCOc1cc2ncc(C#N)c(Nc3ccc(OCc4ccccn4)c(Cl)c3)c2cc1NC(=O)/C=C/CN(C)C
4. CCN1CCN(Cc2ccc(Nc3ncc4c(n3)N(C)c3ccccc3C(=O)N4C)cc2C(F)(F)F)CC1
5. COc1cc(C(=O)NC2CCN(C)CC2)ccc1Nc1ncc2c(n1)N(C1CCCC1)C(C)CC(=O)N2C (centres undefined)
6. C=CC(=O)Nc1cccc(Nc2nc(N[C@H]3CC[C@H](N(C)C)CC3)nc3c2ncn3C(C)C)c1
7. Nc1ccc(-c2ccc3ncc4ccc(=O)n(-c5cccc(C(F)(F)F)c5)c4c3c2)cn1

[100, 95, 98, 57, 100, 94, 77]

====

Biological target: CDK2 (human) (UniProt P24941)
Test: KINOMEscan competition binding
Settings: compound 10.0 µM
Field: kinase still bound, per cent of control. Provide a value for each of the compounds that follow.
One number for each entry, in %.

Check out these entries, answers already filled in.
>>> df
                              sample_smiles                               value_type  unit_name  observed_measurement
0  O=C(O)c1ccc(Nc2ncc3c(n2)-c2ccc(Cl)cc2C(c2c(F)cccc2F)=NC3)cc1  kinase still bound, per cent of control          %                    84
1  C=CC(=O)Nc1cc(NC(=O)c2ccc(C)c(NC(=O)c3ccno3)c2)cc(C(F)(F)F)c1  kinase still bound, per cent of control          %                   100
2  COc1cc(C(=O)NC2CCN(C)CC2)ccc1Nc1ncc2c(n1)N(C1CCCC1)CCC(=O)N2C(C)C  kinase still bound, per cent of control          %                   100
3  O=C(NOC[C@H](O)CO)c1ccc(F)c(F)c1Nc1ccc(I)cc1F  kinase still bound, per cent of control          %                    91

Hey, can you go through the list below and give me kinase still bound, per cent of control for every item?
1. CCC(=O)N1CCN(c2ccc(-n3c(=O)ccc4cnc5ccc(-c6cnc7ccccc7c6)cc5c43)cc2C(F)(F)F)CC1
2. CCN1CCN(Cc2ccc(Nc3ncc4c(n3)N(C)c3ccccc3C(=O)N4C)cc2C(F)(F)F)CC1
3. Cn1c(=O)n(-c2ccc(C(C)(C)C#N)cc2)c2c3cc(-c4cnc5ccccc5c4)ccc3ncc21
4. COc1cc(N2CCN(C)CC2)ccc1Nc1nc(N)c(C(=O)c2c(Cl)cccc2Cl)s1

6.2
68
100
79

Suppose we examine the compound C=CC(=O)Nc1cccc(Nc2nc(N[C@H]3CC[C@H](N(C)C)CC3)nc3c2ncn3C(C)C)c1 ; what kinase still bound, per cent of control value has been reported?
100
